- testMethodNotes: Quantitative High-Throughput drug screen in 47 multiple myeloma cell lines against the NCATS MIPE library collection: PE2_PLB cell viability assay (AID 1919869); further: nearly all actives have a fitted effect of over 35% in size
- reportedConditions: PE2_PLB myeloma cells viability, ATP luminescence, 48 h; series mostly up to 45.8 µM
Records with an inconclusive call do not appear. The source made the active and inactive calls. The call rests on the fitted dose curve; in most records, active means well fitted cell-killing curve with a large enough effect; inconclusive means small, poorly fitted or top-dose-only effect, or effect the other way; inactive means no such curve, though single readings can be large or run the other way.
Outcome codes: label 1 (active), label 0 (inactive)

>  <compound>
CC=CCC=CCCC(=O)[C@H]1O[C@@H]1C(N)=O

>  <categoryLabel>
label 1

$$$$
>  <compound>
O=C1C(Cl)=C(NCCN2CCOCC2)C(=O)c2ncccc21

>  <categoryLabel>
label 1

$$$$
>  <compound>
COc1cc(Nc2ncc(F)c(Nc3ccc4c(n3)NC(=O)C(C)(C)O4)n2)cc(OC)c1OC

>  <categoryLabel>
label 1

$$$$
>  <compound>
CON=C(C(=O)N[C@@H]1C(=O)N2C(C(=O)OCOC(=O)C(C)(C)C)=C(C=Cc3scnc3C)CS[C@H]12)c1csc(N)n1

>  <categoryLabel>
label 1

$$$$
>  <compound>
CS(=O)(=O)N(Cc1ccco1)CC(O)Cn1c2ccccc2c2ccccc21 (stereo not given)

>  <categoryLabel>
label 1

$$$$
>  <compound>
CC(C)(Cc1ccc2ccccc2c1)NC[C@@H](O)COc1cccc(Cl)c1C#N

>  <categoryLabel>
label 0

$$$$
>  <compound>
C[N+](C)(C)CC(=O)O

>  <categoryLabel>
label 0

$$$$
>  <compound>
CC(C)C(C)C=CC(C)C1CCC2C3=CC=C4CC(O)CCC4(C)C3CCC21C (stereo not given)

>  <categoryLabel>
label 0

$$$$
>  <compound>
CO[C@H]1C=CC=C(C)C(=O)NC2=CC(=O)C(NCCN(C)C)=C(C[C@@H](C)C[C@H](OC)[C@@H](O)[C@@H](C)C=C(C)[C@@H]1OC(N)=O)C2=O

>  <categoryLabel>
label 1

$$$$
>  <compound>
CC(C)(C(=O)NCC(F)(F)C(F)(F)F)C(=O)N[C@@H]1C(=O)Nc2ccccc2-c2ccccc21

>  <categoryLabel>
label 1

$$$$
>  <compound>
CNC(=O)c1ccccc1Sc1ccc2c(C=Cc3ccccn3)n[nH]c2c1

>  <categoryLabel>
label 1

$$$$
>  <compound>
N#CC(=C(N)Sc1ccccc1N)C(C#N)=C(N)Sc1ccccc1N

>  <categoryLabel>
label 1

$$$$
>  <compound>
CNC(=O)c1ccc2cc(C3(O)CCn4cncc43)ccc2c1 (stereo not given)

>  <categoryLabel>
label 0

$$$$
>  <compound>
COc1ccc(C2Sc3ccccc3N(CCN(C)C)C(=O)C2OC(C)=O)cc1 (stereo not given)

>  <categoryLabel>
label 0

$$$$
>  <compound>
CC1(C)CCC2=C(O1)c1ccccc1C(=O)C2=O

>  <categoryLabel>
label 1

$$$$
>  <compound>
CNC1CCC(N(Cc2cccc(-c3ccncc3)c2)C(=O)c2sc3c(F)ccc(F)c3c2Cl)CC1 (stereo not given)

>  <categoryLabel>
label 1

$$$$
>  <compound>
CCCCCNC(=O)N1CCC(CN(Cc2ccc(Cl)cc2)Cc2ccc([N+](=O)[O-])s2)C1 (stereo not given)

>  <categoryLabel>
label 1

$$$$
>  <compound>
COCCOc1nc(-c2ccc(Cl)c(Cl)c2)n(-c2ccc(NC(=O)CCl)cc2)n1

>  <categoryLabel>
label 1

$$$$
>  <compound>
Cc1ccc(C(C)(O)c2nc3ccccc3s2)c(C)c1 (stereo not given)

>  <categoryLabel>
label 0

$$$$
>  <compound>
CC(C)(C)Cn1c(N)nc2ccc(-c3[nH]c(C(C)(C)C)nc3-c3ccc(F)cc3)nc21

>  <categoryLabel>
label 1

$$$$

====

- testMethodNotes: qHTS of pediatric cancer cell lines to identify multiple opportunities for drug repurposing: Primary screen for LAN-5 cells (AID 1347100); further: potency means the concentration at half of the fitted maximal effect
- reportedConditions: LAN-5 neuroblastoma viability, CellTiter-Glo luminescence, 48 h; series mostly up to 46 µM
Results filed as inconclusive are left out. Activity calls are given as the source filed them. Calls come from the whole dose curve; as a rule, active = well fitted cell-killing curve with a large enough effect; inconclusive = small, poorly fitted or top-dose-only effect; inactive = no such curve, though single readings can be large or run the other way.

>  <compound>
CCC(CC)[C@H](NC(C)=O)[C@@H]1[C@H](O)[C@@H](C(=O)O)C[C@@H]1N=C(N)N

>  <Potency>
inactive

$$$$
>  <compound>
O=C(NOCC(O)CO)c1cc(Br)c(F)c(F)c1Nc1ccc(I)cc1F (stereo not drawn)

>  <Potency>
inactive

$$$$
>  <compound>
C[C@]12CCC3c4ccc(O)cc4CCC3C1CCC2=O (stereo partly drawn)

>  <Potency>
inactive

$$$$
>  <compound>
Cc1cccc(C)c1OCC(C)N (stereo not drawn)

>  <Potency>
inactive

$$$$
>  <compound>
CC(C)C(=O)Nc1ncc(-c2cc(C(F)F)nn2-c2c(Cl)cccc2Cl)s1

>  <Potency>
23.5 µM (active)

$$$$
>  <compound>
CO[C@H]1C(=O)[C@]2(C)[C@@H](OC)C[C@H]3OC[C@@]3(OC(C)=O)[C@H]2[C@H](OC(=O)c2ccccc2)[C@]2(O)C[C@H](OC(=O)[C@H](O)[C@@H](NC(=O)OC(C)(C)C)c3ccccc3)C(C)=C1C2(C)C

>  <Potency>
0.001 µM (active)

$$$$
>  <compound>
O=C(CCN1CCN(C(=O)OCc2cc(Cl)cc(Cl)c2)CC1)c1ccc2[nH]c(=O)oc2c1

>  <Potency>
inactive

$$$$
>  <compound>
CC(=Cc1ccccc1)C=C1SC(=S)N(CC(=O)O)C1=O

>  <Potency>
inactive

$$$$
>  <compound>
N#CC1(c2ccc(NC(=O)c3cccnc3NCc3ccncc3)cc2)CCCC1

>  <Potency>
inactive

$$$$
>  <compound>
CC(C)(C)c1cc(C(=O)O)c(NC(=O)Nc2ccc3[nH]ncc3c2)s1

>  <Potency>
inactive

$$$$
>  <compound>
CCOc1ccc(Nc2nc(-c3c(C)nc4ccccn34)cs2)cc1

>  <Potency>
0.001 µM (active)

$$$$
>  <compound>
CON=C(C(=O)N[C@@H]1C(=O)N2C(C(=O)OCOC(=O)C(C)(C)C)=C(C=Cc3scnc3C)CS[C@H]12)c1csc(N)n1

>  <Potency>
inactive

$$$$
>  <compound>
CC1(C)CCC(CN2CCN(c3ccc(C(=O)NS(=O)(=O)c4ccc(NCC5CCOCC5)c([N+](=O)[O-])c4)c(Oc4cnc5[nH]ccc5c4)c3)CC2)=C(c2ccc(Cl)cc2)C1

>  <Potency>
1.05 µM (active)

$$$$
>  <compound>
CN(C)CCC=C1c2ccccc2COc2ccc(CC(=O)O)cc21

>  <Potency>
inactive

$$$$
>  <compound>
COc1cc2nc(-c3ccc(N4CCN(C)CC4)cc3)nc(NCCN3CCOCC3)c2cc1OC

>  <Potency>
0.0187 µM (active)

$$$$
>  <compound>
CCC(=O)NC[C@H](Cc1ccc(OCCc2nc(-c3ccccc3)oc2C)cc1)NC(C)=CC(=O)c1ccc(C(F)(F)F)cc1

>  <Potency>
3.32 µM (active)

$$$$
>  <compound>
O=c1ccn([C@@H]2O[C@H](CO)[C@H](O)[C@H]2O)c(=O)[nH]1

>  <Potency>
inactive

$$$$
>  <compound>
O=C1NCC2(CCN(CCc3ccccc3)CC2)O1

>  <Potency>
inactive

$$$$

====

- testMethodNotes: qHTS of pediatric cancer cell lines to identify multiple opportunities for drug repurposing: Confirmatory screen for NB-EBc1 cells (AID 1347115);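 further: cells exposed to compound for 48 h before the viability read; nearly all actives have a fitted effect of over 45% in size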
- reportedConditions: NB-EBc1 neuroblastoma cells, viability (cytotoxicity); series mostly up to 45.9 µM
Inconclusive results are not listed. Active and inactive are the calls of the source. Calls come from the whole dose curve; as a rule, active = well fitted cell-killing curve with a large enough effect; inconclusive = small, poorly fitted or top-dose-only effect, or effect the other way; inactive = no such curve, though single readings can be large or run the other way.
Outcome codes: yes (active), no (inactive)

>  <molecule>
CCc1ccc(OCc2ccccc2C(=O)Nc2ccc3nc(C)cc(N)c3c2)cc1

>  <categoryLabel>
yes

$$$$
>  <molecule>
CC1(C)S[C@H]2[C@H](NC(=O)[C@@H](N)c3ccc(O)cc3)C(=O)N2[C@@H]1C(=O)O

>  <categoryLabel>
no

$$$$
>  <molecule>
CC[C@]1(O)C[C@@H]2CN(CCc3c([nH]c4ccccc34)[C@@](C(=O)OC)(c3cc4c(cc3OC)N(C=O)[C@@H]3C45CCN4CC=C[C@](CC)([C@H]45)[C@@H](OC(C)=O)[C@]3(O)C(=O)OC)C2)C1 (stereo partly drawn)

>  <categoryLabel>
no

$$$$
>  <molecule>
NC1=N[C@@]2(c3cc(NC(=O)c4ccc(F)cn4)ccc3F)COC[C@@H]2CS1

>  <categoryLabel>
no

$$$$
>  <molecule>
CN(C)C1CCN(C(=O)c2ccc(NC(=O)Nc3nc(N4CCOCC4)nc(N4CCOCC4)n3)cc2)CC1

>  <categoryLabel>
yes

$$$$
>  <molecule>
O=C(O)c1ccc(-c2c[nH]c3ncc(-c4ccccc4)cc23)cc1C1CCCC1

>  <categoryLabel>
no

$$$$
>  <molecule>
Cc1cc(OCCCc2c(C(=O)O)n(Cc3cccnc3)c3c(-c4c(COc5ccc(N6CCN([S+](C)(=O)[O-])CC6)cc5)nn(C)c4C)cccc23)cc(C)c1Cl

>  <categoryLabel>
no

$$$$
>  <molecule>
CC1(C)CCC[C@@]2(C)[C@@H]1CC[C@@]1(C)OC(=O)C[C@H]21

>  <categoryLabel>
no

$$$$
>  <molecule>
O=C1c2ccccc2-[n+]2ccc3c([nH]c4ccccc43)c21

>  <categoryLabel>
yes

$$$$
>  <molecule>
CC(=O)Nc1ccc([C@H](C)C(=O)Nc2ncc(C(C)C)s2)cc1

>  <categoryLabel>
no

$$$$
>  <molecule>
N[C@@]1(C(=O)O)CS(=O)(=O)[C@H]2[C@H](C(=O)O)[C@H]21

>  <categoryLabel>
no

$$$$
>  <molecule>
CO[C@H]1C[C@@H]2CC[C@@H](C)[C@@](O)(O2)C(=O)C(=O)N2CCCC[C@@H]2C(=O)O[C@H]([C@H](C)C[C@@H]2CC[C@H](OCCO)[C@H](OC)C2)CC(=O)[C@H](C)C=C(C)[C@@H](O)[C@@H](OC)C(=O)[C@H](C)C[C@H](C)C=CC=CC=C1C

>  <categoryLabel>
no

$$$$
>  <molecule>
Nc1ncnc2c1ncn2[C@@H]1O[C@@H](CO)[C@H](O)[C@H]1O

>  <categoryLabel>
no

$$$$
>  <molecule>
COc1cccc(-c2cc(=O)c3ccccc3o2)c1N

>  <categoryLabel>
no

$$$$
>  <molecule>
O=C1NC(=O)C(=Cc2ccc3c(c2)OC(F)(F)O3)S1

>  <categoryLabel>
no

$$$$
>  <molecule>
CC(=O)Oc1cc2c(s1)CCN(C(C(=O)C1CC1)c1ccccc1F)C2 (stereo not drawn)

>  <categoryLabel>
no

$$$$
>  <molecule>
CO[C@H]1C(=O)[C@]2(C)[C@@H](OC)C[C@H]3OC[C@@]3(OC(C)=O)[C@H]2[C@H](OC(=O)c2ccccc2)[C@]2(O)C[C@H](OC(=O)[C@H](O)[C@@H](NC(=O)OC(C)(C)C)c3ccccc3)C(C)=C1C2(C)C

>  <categoryLabel>
no

$$$$
>  <molecule>
NS(=O)(=O)c1cccc2c1C(=O)c1cccc(O)c1C2=O

>  <categoryLabel>
no

$$$$
>  <molecule>
CC(=O)O[C@]1(C(C)=O)CC[C@@H]2[C@@H]3C[C@H](C)C4=CC(=O)CC[C@]4(C)[C@H]3CC[C@@]21C

>  <categoryLabel>
no

$$$$
>  <molecule>
COc1ccc(-c2coc3cc(O)cc(O)c3c2=O)cc1

>  <categoryLabel>
no

$$$$
>  <molecule>
Oc1ccc(C2CCN(c3ccnc4ccccc34)CC2)cc1O

>  <categoryLabel>
yes

$$$$
>  <molecule>
COc1ncc(-c2ccc3nccc(-c4ccnnc4)c3c2)cc1NS(=O)(=O)c1ccc(F)cc1F

>  <categoryLabel>
yes

$$$$
>  <molecule>
Cc1[nH]c(C=C2C(=O)Nc3ccc(S(=O)(=O)Cc4c(Cl)cccc4Cl)cc32)c(C)c1C(=O)N1CCC[C@H]1CN1CCCC1

>  <categoryLabel>
no

$$$$
